Hello, the source for this data is ChEMBL document CHEMBL1143651, in case you need it.

Catalogue of pIC50 values
measured-target: Mitogen-activated protein kinase 14 (Homo sapiens)
Sequence (Q16539 whole entry): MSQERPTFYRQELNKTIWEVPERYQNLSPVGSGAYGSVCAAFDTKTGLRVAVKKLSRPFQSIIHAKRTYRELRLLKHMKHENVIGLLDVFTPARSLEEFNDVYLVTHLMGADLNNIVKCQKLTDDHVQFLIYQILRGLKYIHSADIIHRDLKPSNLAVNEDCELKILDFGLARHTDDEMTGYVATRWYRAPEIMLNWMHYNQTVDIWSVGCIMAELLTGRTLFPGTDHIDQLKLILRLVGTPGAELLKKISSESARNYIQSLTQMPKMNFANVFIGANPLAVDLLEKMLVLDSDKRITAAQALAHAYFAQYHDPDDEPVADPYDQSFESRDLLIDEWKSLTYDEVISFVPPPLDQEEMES
test-method-notes: Inhibitory concentration against Mitogen-activated protein kinase p38 alpha
pIC50: −log10 of the molar value.
reported-property: pIC50

{"smiles-code": "O=C(O)c1cccc(-c2n[nH]c3cc(Nc4ccccc4Cl)ccc23)c1", "numeric-value": 7.62}
{"smiles-code": "NC(=O)c1cccc(-c2n[nH]c3cc(Nc4ccccc4Cl)ccc23)c1", "numeric-value": 8.49}
{"smiles-code": "CN(C)CCNC(=O)c1ccc(-c2n[nH]c3cc(Nc4ccccc4Cl)ccc23)cc1", "numeric-value": 8.06}
{"smiles-code": "COc1ccccc1Nc1ccc2c(-c3ccccc3)n[nH]c2c1", "numeric-value": 7.34}
{"smiles-code": "c1ccc(Nc2ccc3c(-c4ccccc4)n[nH]c3c2)cc1", "numeric-value": 7.52}

---

Catalogue of log10 IC50 values
measured-target: Mitogen-activated protein kinase 10 (Homo sapiens)
Sequence (P53779 whole entry): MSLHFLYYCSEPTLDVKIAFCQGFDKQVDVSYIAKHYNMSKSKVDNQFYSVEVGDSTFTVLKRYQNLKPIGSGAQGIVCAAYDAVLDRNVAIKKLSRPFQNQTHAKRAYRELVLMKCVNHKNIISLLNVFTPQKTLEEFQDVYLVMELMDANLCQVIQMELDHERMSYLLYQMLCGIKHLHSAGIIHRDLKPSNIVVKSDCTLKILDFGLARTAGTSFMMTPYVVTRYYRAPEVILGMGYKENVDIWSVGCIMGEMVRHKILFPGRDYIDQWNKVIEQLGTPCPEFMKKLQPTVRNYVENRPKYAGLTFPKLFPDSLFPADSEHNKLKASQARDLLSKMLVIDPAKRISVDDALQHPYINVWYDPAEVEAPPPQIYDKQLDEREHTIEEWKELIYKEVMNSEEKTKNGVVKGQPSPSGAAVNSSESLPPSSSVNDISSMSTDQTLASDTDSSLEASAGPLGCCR
test-method-notes: Inhibitory concentration against c-Jun N-terminal kinase 3
reported-property: log10 IC50 (log10 of the value in nM)

{"smiles-code": "NC(=O)c1cccc(-c2n[nH]c3cc(Nc4ccccc4Cl)ccc23)c1", "measured-target": "Mitogen-activated protein kinase 10 (Homo sapiens)", "log10 IC50": 0.52}
{"smiles-code": "c1ccc(Nc2ccc3c(-c4ccccc4)n[nH]c3c2)cc1", "measured-target": "Mitogen-activated protein kinase 10 (Homo sapiens)", "log10 IC50": 1.68}
{"smiles-code": "CN(C)CCNC(=O)c1ccc(-c2n[nH]c3cc(Nc4ccccc4Cl)ccc23)cc1", "measured-target": "Mitogen-activated protein kinase 10 (Homo sapiens)", "log10 IC50": 0.28}
{"smiles-code": "O=C(NCCCN1CCOCC1)c1cccc(-c2n[nH]c3cc(Nc4ccccc4Cl)ccc23)c1", "measured-target": "Mitogen-activated protein kinase 10 (Homo sapiens)", "log10 IC50": 0.53}
{"smiles-code": "O=C(NC1CCNCC1)c1cccc(-c2n[nH]c3cc(Nc4ccccc4Cl)ccc23)c1", "measured-target": "Mitogen-activated protein kinase 10 (Homo sapiens)", "log10 IC50": 0.15}
{"smiles-code": "CN(C)CCNC(=O)c1cccc(-c2n[nH]c3cc(Nc4ccccc4Cl)ccc23)c1", "measured-target": "Mitogen-activated protein kinase 10 (Homo sapiens)", "log10 IC50": 1.32}
{"smiles-code": "O=C(O)c1cccc(-c2n[nH]c3cc(Nc4ccccc4Cl)ccc23)c1", "measured-target": "Mitogen-activated protein kinase 10 (Homo sapiens)", "log10 IC50": 0.72}
{"smiles-code": "O=C(O)c1ccc(-c2n[nH]c3cc(Nc4ccccc4Cl)ccc23)cc1", "measured-target": "Mitogen-activated protein kinase 10 (Homo sapiens)", "log10 IC50": 1.51}
{"smiles-code": "Clc1ccccc1Nc1ccc2c(-c3ccccc3)n[nH]c2c1", "measured-target": "Mitogen-activated protein kinase 10 (Homo sapiens)", "log10 IC50": 1.48}
{"smiles-code": "COc1ccccc1Nc1ccc2c(-c3ccccc3)n[nH]c2c1", "measured-target": "Mitogen-activated protein kinase 10 (Homo sapiens)", "log10 IC50": 2.31}

---

measured-target: Mitogen-activated protein kinase 8 (Homo sapiens)
Sequence (P45983 whole entry): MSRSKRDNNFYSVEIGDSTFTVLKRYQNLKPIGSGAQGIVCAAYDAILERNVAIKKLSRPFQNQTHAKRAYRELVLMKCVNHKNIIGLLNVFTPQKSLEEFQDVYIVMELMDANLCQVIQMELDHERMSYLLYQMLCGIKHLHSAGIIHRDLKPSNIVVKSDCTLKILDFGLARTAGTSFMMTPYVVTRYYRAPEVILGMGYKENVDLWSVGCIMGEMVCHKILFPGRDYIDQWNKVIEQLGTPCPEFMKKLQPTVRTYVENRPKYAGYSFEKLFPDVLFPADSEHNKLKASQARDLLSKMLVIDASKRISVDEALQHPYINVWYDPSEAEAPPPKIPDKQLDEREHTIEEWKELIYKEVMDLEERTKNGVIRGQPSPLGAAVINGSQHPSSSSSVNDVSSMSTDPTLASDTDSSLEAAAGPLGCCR
test-method-notes: Inhibitory concentration against c-Jun N-terminal kinase 1
pIC50: −log10 of the molar value.
Let's look at some compounds and their measured pIC50.
reported-property: pIC50

{"smiles-code": "Clc1ccccc1Nc1ccc2c(-c3ccccc3)n[nH]c2c1", "inequality-operator": "=", "numeric-value": 5.27}
{"smiles-code": "NC(=O)c1cccc(-c2n[nH]c3cc(Nc4ccccc4Cl)ccc23)c1", "inequality-operator": "=", "numeric-value": 7.09}
{"smiles-code": "c1ccc(Nc2ccc3c(-c4ccccc4)n[nH]c3c2)cc1", "inequality-operator": "<", "numeric-value": 5.00}
{"smiles-code": "O=C(NCCCN1CCOCC1)c1cccc(-c2n[nH]c3cc(Nc4ccccc4Cl)ccc23)c1", "inequality-operator": "=", "numeric-value": 6.64}
{"smiles-code": "O=C(NC1CCNCC1)c1cccc(-c2n[nH]c3cc(Nc4ccccc4Cl)ccc23)c1", "inequality-operator": "=", "numeric-value": 7.15}
{"smiles-code": "CN(C)CCNC(=O)c1ccc(-c2n[nH]c3cc(Nc4ccccc4Cl)ccc23)cc1", "inequality-operator": "=", "numeric-value": 7.35}
{"smiles-code": "O=C(O)c1cccc(-c2n[nH]c3cc(Nc4ccccc4Cl)ccc23)c1", "inequality-operator": "=", "numeric-value": 7.21}
{"smiles-code": "O=C(O)c1ccc(-c2n[nH]c3cc(Nc4ccccc4Cl)ccc23)cc1", "inequality-operator": "=", "numeric-value": 6.61}
{"smiles-code": "COc1ccccc1Nc1ccc2c(-c3ccccc3)n[nH]c2c1", "inequality-operator": "=", "numeric-value": 5.80}
{"smiles-code": "CN(C)CCNC(=O)c1cccc(-c2n[nH]c3cc(Nc4ccccc4Cl)ccc23)c1", "inequality-operator": "=", "numeric-value": 6.16}
